Data provenance is paper PMC5520944.

Test system: L929sAhFas
experiment_notes: cells
Parameters: high-content necroptosis screen, percentage PI-positive nuclei as percent of DMSO plus stimulus control
particulars: read-out: cell death TNF/Taki (POC)
Structures can show the parent of a compound that is named as a salt.
# key: entry, value: activity at 10 µM
Report field: quantity (unit follows the number).

Recorded activity at 10 µM, per entry:
* N#C/C(=C\c1ccc(O)c(O)c1)C(N)=S | 100%
* CCN(CC)CCNC(=O)c1c(C)[nH]c(/C=C2\C(=O)Nc3ccc(Cl)cc32)c1C | 104%
* Cc1ccc(NC(=O)c2ccc(CN3CCN(C)CC3)cc2)cc1Nc1nccc(-c2cccnc2)n1 [Imatinib mesylate] | 96.1%
* COC[C@H]1OC(=O)c2coc3c2[C@@]1(C)C1=C(C3=O)[C@@H]2CCC(=O)[C@@]2(C)C[C@H]1OC(C)=O | 101%
* N#CC(C#N)=Cc1ccc(O)c(O)c1 | 100%
* O=P(O)(O)C(O)c1ccc2ccccc2c1 (centres unmarked) | 100%

Look up activity at 10 µM: O=C(O)c1cc(N(Cc2ccccc2O)Cc2cc(O)ccc2O)ccc1O 100%

Would you kindly repeat that for N#C/C(=C\c1ccc(O)c(O)c1)C(=O)NCc1ccccc1 ? 97.3%

Would you kindly repeat that for N#C/C(=C\c1cc(Cl)cc(Cl)c1)c1cccnc1 ? 99.8%

###

Test system: L929sAhFas
experiment_notes: cells
Design: high-content necroptosis screen, percentage PI-positive nuclei as percent of DMSO plus stimulus control
particulars: read-out: cell death TNF/Taki (POC)
Structures can show the parent of a compound that is named as a salt.
# key: entry, value: activity at 10 µM
Give just the number in %; leave the unit off.

• O=c1c(-c2ccc(O)cc2)coc2cc(O)cc(O)c12 = 99.3
• O=S(=O)(c1cccc2c(Cl)cccc12)N1CCCNCC1 [ML-9·HCl] = 99.8
• N#CC(C#N)=Cc1cc(O)c(O)c(O)c1 = 100
• CN(C)c1ccc(/C=C2\C(=O)Nc3ccccc32)cc1 = 96.8
• COc1cccc(-c2cc(=O)c3ccccc3o2)c1N = 98.9

Look up activity at 10 µM: Nc1ncnc2c1c(I)cn2[C@@H]1O[C@H](CO)[C@@H](O)[C@H]1O 101

Would you kindly repeat that for COc1cc(/C=C(\C#N)C(N)=O)cc(CSc2nc3ccccc3s2)c1O ? 99.4

###

Tested on: L929sAhFas
experiment_notes: cells
Parameters: high-content necroptosis screen, percentage PI-positive nuclei as percent of DMSO plus stimulus control
particulars: read-out: cell death TNF/Taki (POC)
Counter-ions that a name gives are not always drawn.
# key: entry, value: activity at 10 µM
Give just the number in %; leave the unit off.

Recorded activity at 10 µM, per entry:
• O=S(=O)(c1cccc2c(I)cccc12)N1CCCNCC1 [ML-7·HCl] = 99.4
• O=C(O)c1ccc2nc(-c3ccccc3)c(-c3ccccc3)nc2c1 = 99.7
• N#CC(=C(/N)Sc1ccccc1N)/C(C#N)=C(\N)Sc1ccccc1N = 98.7

Now consider the entry below.
Look up activity at 10 µM: Cc1ccc(-c2nn(C(C)(C)C)c3ncnc(N)c23)cc1 100
